- Target entity: T1, CRBN, Q96SW2;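 further: pooled lentiviral library of zinc finger degron-EGFP fusions in mCherry-positive Jurkat cells, FACS-sorted after compound exposure, with degron abundance counted by next-generation sequencing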
- T1 chain: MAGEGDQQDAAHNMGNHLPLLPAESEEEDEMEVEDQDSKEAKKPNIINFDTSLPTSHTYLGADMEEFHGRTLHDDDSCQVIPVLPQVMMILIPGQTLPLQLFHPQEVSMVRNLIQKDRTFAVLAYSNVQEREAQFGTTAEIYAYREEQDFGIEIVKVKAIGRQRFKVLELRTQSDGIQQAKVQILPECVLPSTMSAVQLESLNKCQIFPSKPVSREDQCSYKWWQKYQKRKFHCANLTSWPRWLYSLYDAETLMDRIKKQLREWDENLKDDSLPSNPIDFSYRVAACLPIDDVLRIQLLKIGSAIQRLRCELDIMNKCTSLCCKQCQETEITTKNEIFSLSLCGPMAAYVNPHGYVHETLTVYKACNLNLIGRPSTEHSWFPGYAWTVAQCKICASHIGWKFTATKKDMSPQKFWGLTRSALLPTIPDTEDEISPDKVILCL
- Measurement protocol: log2 fold change of degron read counts, EGFP-low vs EGFP+ sorted cells (limma voom), compound-induced degradation; higher = more compound-induced degradation of the degron-EGFP fusion; degrons are variants of IKZF1/3 zinc finger 2; compound dose not given here
- Applied conditions: Jurkat; 18 h; compound: thalidomide
Whole data set: some 8,300 sequences, median “log2 fold change of degron read counts, EGFP-low vs EGFP+ sorted cells (limma voom), compound-induced degradation” near -1.1, cut for the highest 2% near 3.2. The sample as a whole holds a higher share of the highest values than the screen did.
Property label: log2 fold change of degron read counts
The response must contain the number and no unit.

Below: 5 sequences and their reported log2 fold change of degron read counts.
FMCEVCGAPFTQKGNLLRHIKL [46F_47M_49E_50V_52G_53A_54P_55F_67L_, Q9UKT9]    2.6
FYCNVCGANFTQKGNLLRHIKL [46F_47Y_49N_50V_52G_53A_54N_55F_67L_, Q9UKT9]    -0.663
FKCEVCGAPFTQKGNLLRHIKL [46F_47K_49E_50V_52G_53A_54P_55F_67L_, Q9UKT9]    1.95
FICDVCGADFTQKGNLLRHIKL [46F_47I_49D_50V_52G_53A_54D_55F_67L_, Q9UKT9]    -2.17
FFCPVCGANFTQKGNLLRHIKL [46F_47F_49P_50V_52G_53A_54N_55F_67L_, Q9UKT9]    1.22

State its log2 fold change of degron read counts for this sequence: FWCDVCGANFTQKGNLLRHIKL [46F_47W_49D_50V_52G_53A_54N_55F_67L_, Q9UKT9] -0.759

State its log2 fold change of degron read counts for this sequence: FECDVCGANFTQKGNLLRHIKL [46F_47E_49D_50V_52G_53A_54N_55F_67L_, Q9UKT9] -0.264

State its log2 fold change of degron read counts for this sequence: FVCDVCGANFTQKGNLLRHIKL [46F_47V_49D_50V_52G_53A_54N_55F_67L_, Q9UKT9] 0.237

State its log2 fold change of degron read counts for this sequence: FECEVCGAPFTQKGNLLRHIKL [46F_47E_49E_50V_52G_53A_54P_55F_67L_, Q9UKT9] 1.6

State its log2 fold change of degron read counts for this sequence: FECNVCGANFTQKGNLLRHIKL [46F_47E_49N_50V_52G_53A_54N_55F_67L_, Q9UKT9] 0.642

State its log2 fold change of degron read counts for this sequence: FRCPVCGANFTQKGNLLRHIKL [46F_47R_49P_50V_52G_53A_54N_55F_67L_, Q9UKT9] 1.18

State its log2 fold change of degron read counts for this sequence: LMCPICGFICTQKGNLLRHIKL [46L_47M_49P_50I_52G_53F_54I_55C_67L_, Q9UKT9] 1.27

State its log2 fold change of degron read counts for this sequence: FDCDVCGADFTQKGNLLRHIKL [46F_47D_49D_50V_52G_53A_54D_55F_67L_, Q9UKT9] -2.92

State its log2 fold change of degron read counts for this sequence: FWCEQCGAQFTQKGNLLRHIKL [46F_47W_49E_50Q_52G_53A_54Q_55F_67L_, Q9UKT9] -0.633

State its log2 fold change of degron read counts for this sequence: FWCNVCGANFTQKGNLLRHIKL [46F_47W_49N_50V_52G_53A_54N_55F_67L_, Q9UKT9] -0.0957
